B1: GMCL1 (parent)
chain: FCYCAGSHKRKRSSGSFCYCHPDS

# Variants of: B1
# METHOD SUMMARY: protein stability index of a GFP-peptide fusion (GPS, HEK-293T) (PSI 1-6); higher = more stable;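 further: lentivirally expressed fusions sorted by FACS into six bins by GFP to DsRed ratio, PSI derived from sequencing read proportions per bin multiplied by bin number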
# MEASUREMENT CONTEXT: c terminus: a fixed tail appended
Task for the reader: assign each of the following variants its reported protein stability index.
Numbers only.

>  <MUTATION DESCRIPTOR>
C2D

>  <NUMBER>
2.79

$$$$

// each variant listed below needs its protein stability index
1. S24R
2. S24K
3. C18Q
4. Y3A
5. H21E
6. A5Y

1: 2.28; 2: 2.44; 3: 2.63; 4: 2.37; 5: 2.73; 6: 1.89

Entry under review: `C2W` . Reported protein stability index?
1.79
